# Tested on: Aorta
# Measurement protocol: Vasorelaxant activity in Wister rat isolated thoracic aortic rings assessed as reduction of norepinephrine hydrochloride-induced contraction
# Format: functional, tissue-based
Reported IC50 by item:

Smiles text	IC50 (µM)
COc1nc(-c2nc3ccccc3n2C)cc(-c2ccc(C)cc2)c1C#N	295
COc1nc(-c2nc3ccccc3n2C)cc(-c2ccc(Cl)cc2Cl)c1C#N	214
COc1nc(-c2nc3ccccc3n2C)cc(-c2ccc(C)o2)c1C#N	283
CCOc1nc(-c2nc3ccccc3n2C)cc(-c2ccc(Cl)cc2)c1C#N	293
COc1nc(-c2nc3ccccc3[nH]2)cc(-c2ccc(Cl)cc2)c1C#N	286
CCOc1nc(-c2nc3ccccc3n2C)cc(-c2cccs2)c1C#N	249

----------
# Tested on: Aorta
# Measurement protocol: Vasorelaxant activity in Wister rat isolated thoracic aortic rings assessed as reduction of norepinephrine hydrochloride-induced contraction
# Assay type: functional, tissue-based
pIC50: −log10 of the molar value.
// reported pIC50 for each item listed

Smiles text	pIC50
COc1nc(-c2nc3ccccc3n2C)cc(-c2cccs2)c1C#N	3.51
CCOc1nc(-c2nc3ccccc3n2C)cc(-c2ccc(C)o2)c1C#N	3.47
COc1nc(-c2nc3ccccc3n2C)cc(-c2ccc(F)cc2)c1C#N	3.46
CCOc1nc(-c2nc3ccccc3n2C)cc(-c2ccc(OC)cc2)c1C#N	3.36
COc1nc(-c2nc3ccccc3n2C)cc(-c2ccc(Cl)cc2)c1C#N	3.84
CCOc1nc(-c2nc3ccccc3n2C)cc(-c2ccc(Cl)cc2Cl)c1C#N	3.52
CCOc1nc(-c2nc3ccccc3n2C)cc(-c2ccc(F)cc2)c1C#N	3.44
COc1nc(-c2nc3ccccc3[nH]2)cc(-c2ccc(C)o2)c1C#N	3.69
COc1ccc(-c2cc(-c3nc4ccccc4n3C)nc(OC)c2C#N)cc1	3.68
COc1nc(-c2nc3ccccc3n2C)cc(-c2ccccc2)c1C#N	3.52
CCOc1nc(-c2nc3ccccc3n2C)cc(-c2ccc(C)cc2)c1C#N	3.40
CCOc1nc(-c2nc3ccccc3n2C)cc(-c2ccccc2)c1C#N	3.44
